The measurements presented in this section are drawn from paper PMC5419745.

tgt: Hsa NCOA1 CID (SRC1) (human)
Sequence (Q15788 1040-1081): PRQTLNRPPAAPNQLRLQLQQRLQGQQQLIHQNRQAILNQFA
measurement-description: ITC; iTC200, 25°C, 20 mM sodium phosphate, pH 7.4, 150 mM NaCl; both partners dialysed against the same buffer
measurement-name: Kd (nM)
Answer in nM, number only, no unit symbol.

IPPNALQDLLRTLRSPSSPQQQQQVLNILKSNPQLMAAFIKQRAAKYQ (domain or fragment, modifications not checked) [1R/2R NCBD] :: 110

Consider the additional binder presented here.
Q: What does the record list as Kd for ITPGALQDLLRTLKSPSSPQQQQQVLNILKSNPHLMAAFIKQRTAKYQ (domain or fragment, modifications not checked) [Dre CREBBP NCBD] ?
A: 290
